Source listed as PubChem BioAssay.

test_details: growth inhibition, single agents and combos, ICB984, cell-based, cisplatin or BGB combos, synergistic combos for chromothripsis tumors (AID 1671451);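 further: cells exposed for 96 hours before readout; 0% = vehicle DMSO and 100% = killing by high DMSO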
condition_set: ICB984 medulloblastoma cells, drug combinations, BGB IC40 combo, at 0.005 µM, stronger effect = higher value
Non-standard residues stand in square brackets, D forms with d. Residues, ends and D or L forms follow the SMILES beside them. Dolaproine = CO[C@@H]([C@@H]1CCCN1)[C@@H](C)C(=O)O; Dil = CC[C@H](C)[C@H](NC)[C@@H](CC(=O)O)OC; NMeV = CN[C@H](C(=O)O)C(C)C
Classify as follows. Reported inhibition greater than or equal to -30%: label 1. Reported inhibition below: label 0.

See these solved cases before continuing.
- molecule: "Cc1cn(C2CC(O)C(COP(=O)(O)OP(=O)(O)OP(=O)(O)O)O2)c(=O)[nH]c1=O (stereo not drawn)"
  class_label: "label 1"
- molecule: "CC(C)C(=O)SCCCCCCC(=O)Nc1nc(-c2ccccc2)cs1"
  class_label: "label 1"
- molecule: "O=c1ccn(C2CC(O)C(CO)O2)c(=O)[nH]1 (stereo not drawn)"
  class_label: "label 0"
- molecule: "Cn1cnc2[nH]c(=O)[nH]c(=O)c21"
  class_label: "label 1"
- molecule: "CC[C@H](C)[C@@H]([C@@H](CC(=O)N1CCC[C@H]1[C@H](OC)[C@@H](C)C(=O)N[C@@H](Cc1ccccc1)C(=O)O)OC)N(C)C(=O)[C@@H](NC(=O)[C@@H](NC)C(C)C)C(C)C (H-[NMeV]V[Dil][Dolaproine]F-OH)"
  class_label: "label 1"
- molecule: "O=c1[nH]c(=O)n(C2CC(O)C(CO)O2)cc1I (stereo not drawn)"
  class_label: "label 1"

Moving on to another molecule below.
Textbook exercise: given the entry CCC(C)C(=O)OC1CC(C)C=C2C=CC(C)C(CCC3CC(O)CC(=O)O3)C21 (stereo not drawn) , state whether its inhibition is greater than or equal to -30%.
label 1
